Data provenance: PubChem BioAssay AID488969

measuredOn: Metabotropic glutamate receptor 8 (Rattus norvegicus) (UniProt P70579)
Sequence (P70579 whole entry, looked up): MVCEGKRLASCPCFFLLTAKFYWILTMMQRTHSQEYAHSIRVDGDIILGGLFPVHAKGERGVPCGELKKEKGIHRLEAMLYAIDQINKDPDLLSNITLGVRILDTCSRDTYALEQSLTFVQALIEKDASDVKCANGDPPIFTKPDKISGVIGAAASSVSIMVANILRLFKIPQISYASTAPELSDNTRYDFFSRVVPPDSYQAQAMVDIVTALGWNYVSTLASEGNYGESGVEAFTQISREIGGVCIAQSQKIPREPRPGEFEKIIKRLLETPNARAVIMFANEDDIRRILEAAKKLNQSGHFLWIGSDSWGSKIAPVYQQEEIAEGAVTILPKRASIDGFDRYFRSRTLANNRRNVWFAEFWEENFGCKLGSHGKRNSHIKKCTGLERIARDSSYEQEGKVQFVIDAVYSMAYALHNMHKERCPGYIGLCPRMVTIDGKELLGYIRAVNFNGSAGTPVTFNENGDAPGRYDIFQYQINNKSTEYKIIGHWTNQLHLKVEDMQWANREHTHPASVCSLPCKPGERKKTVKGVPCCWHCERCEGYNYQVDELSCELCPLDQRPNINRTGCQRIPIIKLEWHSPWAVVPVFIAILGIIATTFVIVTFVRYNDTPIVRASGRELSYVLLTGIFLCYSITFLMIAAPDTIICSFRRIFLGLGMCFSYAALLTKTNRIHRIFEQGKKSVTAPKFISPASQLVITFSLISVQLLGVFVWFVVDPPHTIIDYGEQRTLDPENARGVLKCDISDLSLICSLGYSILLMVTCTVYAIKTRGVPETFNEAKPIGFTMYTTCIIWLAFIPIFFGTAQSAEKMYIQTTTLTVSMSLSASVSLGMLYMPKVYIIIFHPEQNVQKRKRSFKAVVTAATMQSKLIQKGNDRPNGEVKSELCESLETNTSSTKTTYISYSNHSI
testDetails: mGluR8 Gi/Go-coupled signaling modulation – cell-based, rat, thallium flux, HTS, primary screen (AID 488969)
runConditions: HEK293 rat mGluR8, GIRK (G protein-gated inwardly rectifying potassium channel) thallium flux, FluoZin2; at 10 µM; stronger effect = higher value; submaximal glutamate (EC20) added with thallium
Over roughly 110,000 compounds, “z-score” has its median near -0.1; the highest 2% begin near 2. Only a selection was taken, and the highest values are over-represented in it overall.
z-score vs 0.02: at or above is True, below is False.

q: Reported z-score reaches at least 0.02 for O=C(O)CCC(=O)Nc1ccc(N2CCCCC2)c(C(=O)O)c1 ?
a: True

q: Reported z-score reaches at least 0.02 for CCCCn1nnnc1SCC(=O)c1cc(Cl)ccc1OC ?
a: False

q: Reported z-score reaches at least 0.02 for CC1CCN(c2ccc(/C=N/n3nnnc3N)cc2[N+](=O)[O-])CC1 ?
a: True

q: Reported z-score reaches at least 0.02 for Cc1cc(C)c2oc(-c3ccc(C)c(NC(=S)NC(=O)/C=C/c4ccco4)c3)nc2c1 ?
a: False

q: Reported z-score reaches at least 0.02 for CN(C)C(=O)CN(c1ccc2c(c1)OCO2)S(C)(=O)=O ?
a: False

q: Reported z-score reaches at least 0.02 for C=CCn1c(SCC(=O)Nc2sccc2C(N)=O)nc2ccccc2c1=O ?
a: False

q: Reported z-score reaches at least 0.02 for C=CCn1c(SCC(=O)NCCC2=CCCCC2)nc2ccc(Cl)cc2c1=O ?
a: False

q: Reported z-score reaches at least 0.02 for Cc1ccc(S(=O)(=O)N2CCOCC2)cc1NC(=O)CSc1nnc2cc(C)c3ccccc3n12 ?
a: False

q: Reported z-score reaches at least 0.02 for Cc1noc(C)c1CSCC(=O)NC1=NCCS1 ?
a: False

q: Reported z-score reaches at least 0.02 for Cc1ccc(/C([O-])=C(/C(=S)NCc2ccco2)[n+]2ccccc2)cc1 ?
a: False

q: Reported z-score reaches at least 0.02 for COC(=O)c1cc(OC)c(OC)cc1NC(=O)c1ccc(C)o1 ?
a: False

q: Reported z-score reaches at least 0.02 for Cc1ccc(NC(=O)c2cc(NC(=O)CCC(=O)O)ccc2N2CCCCC2)cc1 ?
a: True

q: Reported z-score reaches at least 0.02 for COc1ccc(CCCC(=O)Nc2ccccc2F)cc1 ?
a: False

q: Reported z-score reaches at least 0.02 for CCOC(=O)c1c(N)sc2c1CCC(CC)C2 (stereo not drawn) ?
a: True

q: Reported z-score reaches at least 0.02 for CCOC(=O)c1c(NC(=O)C2C3C=CC(C3)C2C(=O)O)sc2c1CCC(CC)C2 (stereo not drawn) ?
a: True

q: Reported z-score reaches at least 0.02 for COC(=O)N/N=C/c1ccc(OCCSc2ccc(Cl)cc2)c(OC)c1 ?
a: True

q: Reported z-score reaches at least 0.02 for CCc1nnc(N/N=C/c2ccc(N3CCC(C)CC3)c([N+](=O)[O-])c2)n1N ?
a: False

q: Reported z-score reaches at least 0.02 for CCn1ncc(Cl)c1C(=O)Nc1cc(Cl)ccc1Cl ?
a: True

q: Reported z-score reaches at least 0.02 for Nc1nnnn1/N=C/c1ccc(N2CCCCC2)c([N+](=O)[O-])c1 ?
a: True

q: Reported z-score reaches at least 0.02 for C=CCn1c(SCC(=O)Nc2sccc2C(N)=O)nc2ccc(Cl)cc2c1=O ?
a: True

q: Reported z-score reaches at least 0.02 for CCOC(=O)C1CCN(C(=O)CSc2nnc(-c3ccco3)n2-c2ccccc2)CC1 ?
a: False

q: Reported z-score reaches at least 0.02 for Cc1ccc(-c2nc3ccccc3o2)cc1NC(=S)NC(=O)/C=C/c1ccco1 ?
a: True

q: Reported z-score reaches at least 0.02 for Cc1cccc(NC(=O)CSc2nsc(SCC(=O)Nc3cccc(C)c3)c2C#N)c1 ?
a: False

q: Reported z-score reaches at least 0.02 for COc1cccc(N=Cc2c(O)n(-c3cccc(C)n3)c(=O)c3ccccc23)c1 ?
a: False

q: Reported z-score reaches at least 0.02 for CCc1nnc(NC(=O)C2CCCN2S(=O)(=O)c2ccc(F)cc2)s1 (stereo not drawn) ?
a: True

q: Reported z-score reaches at least 0.02 for COCCN(C(=O)COc1ccccc1)c1nnc(-c2cccnc2)s1 ?
a: False

q: Reported z-score reaches at least 0.02 for COc1ccc(Cl)cc1C(=O)CSc1nnnn1C1CCCCC1 ?
a: False

q: Reported z-score reaches at least 0.02 for C=CCn1c(SCC(=O)c2ccc(Cl)s2)nc2ccccc2c1=O ?
a: False

q: Reported z-score reaches at least 0.02 for COC(=O)c1ccccc1NC(=O)C1CCC(=O)N1S(=O)(=O)c1ccc(C)cc1 (stereo not drawn) ?
a: True

q: Reported z-score reaches at least 0.02 for O=C(NCC1CCCO1)C(c1cccs1)N(C(=O)Cn1nnc(-c2cccs2)n1)C1CCCC1 (stereo not drawn) ?
a: False

q: Reported z-score reaches at least 0.02 for CCOC(=O)COc1ccc(S(=O)(=O)NCc2cccnc2)cc1 ?
a: False

q: Reported z-score reaches at least 0.02 for COC(=O)c1cc(-c2ccccc2)on1 ?
a: False

q: Reported z-score reaches at least 0.02 for CC(NC(=O)COc1ccccc1-c1ccccc1)c1ccccc1 (stereo not drawn) ?
a: False
